TEST_METHOD_NOTES: soluble fraction after stress (log2 fold change); higher = more stays soluble; pooled small domains, quantitative proteomics;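 further: 20 min heating vs room temperature control held 20 min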
TEST_CONTEXT: stress: 75 degC
Classify by measured soluble fraction (log2): YES if it is equal to or exceeds -0.4, NO if it is smaller.

Observe how each entry below is paired with its result.
>>> class_name("HMLKDQSIAQLEKNLDDLKGLMRKMFGSSDVPKITKMISDIESSLANFNQSKANKLIVQTTNYISSKL")
"NO"
>>> class_name("HMRADYVGGLDPAGDNFLALRTGPGSGYAMILPMGPGTFVTVLRRNGKWLLVELEDGTRGWAYGSYILG")
"NO"
>>> class_name("HMDNWAALLSEREVQVSRLVANGASNKEIADHLAITERTVKAHLTAVFEKLGVRDRLQLSLRVNGL")
"NO"
>>> class_name("HMGEQETILKGDVNRDGVVDVNDVTHLQIHISNDDKNPLIDVTNKAWFDAADMYGDGKLDILDATALQIYI")
"YES"
>>> class_name("HMAKRPRFEDVIKEINTEIQKRKGKWNLTILSWMDFDDVAQVIRIHIYRKWHLYDPSKPLGPWLNR")
"YES"
>>> class_name("HMRKMELTEAAEKLIEEPDVVSAYRNMQQIFQQWREIGPVPREQRDEVWSHFKDLMTQVNRRHQAHFEN")
"YES"

Turning to the following sequence.
Reported soluble fraction (log2) at or above -0.4? HMKKILLGDVNLDGKVDVNDVTLLQRYIAGETEVITSKDALTATNFNKDGNIDVLDVTDIQTFIANSE
YES

Measured values drawn from the domain aggregation screens of Martell et al. (2025) for this set.
